- Measured Target: urokinase plasminogen activator (uPA) (UniProt P00749 21-431, limits assumed); further: test concentration or dose not given here
- Assay Name: cell-based or functional assay
Value Kind: % Inhibition (%)

[[record]]
binder = "AATE8 (other, human, mature; also called rAATE8) HHHHHHEDPQGDAAQKTDTSHHDQDHPTFNKITPNLAEFAFSLYRQLAHQSNSTNIFFSPVSIATAFAMLSLGTKADTHDEILEGLNFNLTEIPEAQIHEGFQELLRTLNQPDSQLQLTTGNGLFLSEGLKLVDKFLEDVKKLYHSEAFTVNFGDTEEAKKQINDYVEKGTQGKIVDLVKELDRDTVFALVNYIFFKGKWERPFEVKDTEEEDFHVDQVTTVKVPMMKRLGMFNIQHCKKLSSWVLLMKYLGNATAIFFLPDEGKLQHLENELTHDIITKFLENEDRRSASLHLPKLSITGTYDLKSVLGQLGITKVFSNGADLSGVTEEAPLKLSKAVHKAVLTIDEKGTEAAGAMFLEALQRAIPPEVKFNKPFVFLMIEQNTKSPLFMGKVVNPTQK"
value_kind = "% Inhibition"
observed_result = 0

